# assay.explanation: Clearance in Sprague-Dawley rat at 10 mg/kg, iv
# Format: ADME, organism-based
# stated.conditions: in vivo
quantity.name: clearance (mL/min/kg)
Answer in mL/min/kg, number only, no unit symbol.

Notebook: CO[C@H]1/C=C/O[C@@]2(C)Oc3c(C)c(O)c4c(c3C2=O)C2=NC3(CCN(CCn5c([N+](=O)[O-])cnc5C)CC3)NC2=C(NC(=O)/C(C)=C\C=C\[C@H](C)[C@H](O)[C@@H](C)[C@@H](O)[C@@H](C)[C@H](OC(C)=O)[C@@H]1C)C4=O [RIFASUTENIZOL] , clearance read as 26

---

# assay.explanation: Half life in Sprague-Dawley rat at 50 mg/kg, po
# Type: ADME, organism-based
# stated.conditions: in vivo
quantity.name: half-life (min)
Note: unit min is implicit; provide only the numeric part.

Sure, the documented half-life for CO[C@H]1/C=C/O[C@@]2(C)Oc3c(C)c(O)c4c(c3C2=O)C2=NC3(CCN(CCn5c([N+](=O)[O-])cnc5C)CC3)NC2=C(NC(=O)/C(C)=C\C=C\[C@H](C)[C@H](O)[C@@H](C)[C@@H](O)[C@@H](C)[C@H](OC(C)=O)[C@@H]1C)C4=O [RIFASUTENIZOL] is 56.4

---

# assay.explanation: Drug distribution in Sprague-Dawley rat plasma measured at 6 hrs
# Assay type: ADME, cell-free
quantity.name: concentration at 6 h

get_value(item= CO[C@H]1/C=C/O[C@@]2(C)Oc3c(C)c(O)c4c(c3C2=O)C2=NC3(CCN(CCn5c([N+](=O)[O-])cnc5C)CC3)NC2=C(NC(=O)/C(C)=C\C=C\[C@H](C)[C@H](O)[C@@H](C)[C@@H](O)[C@@H](C)[C@H](OC(C)=O)[C@@H]1C)C4=O , readout=concentration at 6 h) returns 1440 ng/mL

---

# assay.explanation: Drug distribution in Sprague-Dawley rat vaginal tissue measured at 12 hrs
# Format: ADME, tissue-based, Vagina
# stated.conditions: female, read-out: Ct
quantity.name: concentration at 12 h (ng/g)
Kindly provide the numeric value in ng/g only, without the unit symbol.

response.value for CO[C@H]1/C=C/O[C@@]2(C)Oc3c(C)c(O)c4c(c3C2=O)C2=NC3(CCN(CCn5c([N+](=O)[O-])cnc5C)CC3)NC2=C(NC(=O)/C(C)=C\C=C\[C@H](C)[C@H](O)[C@@H](C)[C@@H](O)[C@@H](C)[C@H](OC(C)=O)[C@@H]1C)C4=O (field: concentration at 12 h) = 35.8

---

# assay.explanation: AUC in C57BL/6 mouse at 20 mg/kg, po
# Assay type: ADME, organism-based
# Design: dose 20 mg/kg, route po
# stated.conditions: in vivo
quantity.name: AUC (µg·h/mL)
Quick reminder: number only, in µg·h/mL, skip the unit.

The reported value for CO[C@H]1/C=C/O[C@@]2(C)Oc3c(C)c(O)c4c(c3C2=O)C2=NC3(CCN(CCn5c([N+](=O)[O-])cnc5C)CC3)NC2=C(NC(=O)/C(C)=C\C=C\[C@H](C)[C@H](O)[C@@H](C)[C@@H](O)[C@@H](C)[C@H](OC(C)=O)[C@@H]1C)C4=O in terms of AUC is 3.04

---

# assay.explanation: Drug distribution in Sprague-Dawley rat stomach tissue measured at 12 hrs
# Assay type: ADME, tissue-based
# stated.conditions: read-out: Ct
quantity.name: concentration at 12 h
# number then unit; no other words

Form field concentration at 12 h, entry CO[C@H]1/C=C/O[C@@]2(C)Oc3c(C)c(O)c4c(c3C2=O)C2=NC3(CCN(CCn5c([N+](=O)[O-])cnc5C)CC3)NC2=C(NC(=O)/C(C)=C\C=C\[C@H](C)[C@H](O)[C@@H](C)[C@@H](O)[C@@H](C)[C@H](OC(C)=O)[C@@H]1C)C4=O : 114 ng/g

---

# System: Clostridioides difficile
# assay.explanation: Antibacterial activity against rifampicin-resistant Clostridioides difficile harboring rpoBQ489K mutant
# Assay type: functional
// reported MIC for each item listed

Use the examples below as a reference point.
molecule	MIC
Cc1ncc([N+](=O)[O-])n1CCO [METRONIDAZOLE]	> 8 µg/mL
CO[C@H]1/C=C/O[C@@]2(C)Oc3c(C)c(O)c4c(O)c(c5c(nc6ccc(CCC(=O)N7CCN(CCn8c([N+](=O)[O-])cnc8C)CC7)cn65)c4c3C2=O)NC(=O)/C(C)=C\C=C\[C@H](C)[C@H](O)[C@@H](C)[C@@H](O)[C@@H](C)[C@H](OC(C)=O)[C@@H]1C	4 µg/mL
CO[C@H]1/C=C/O[C@@]2(C)Oc3c(C)c(O)c4c(O)c(c(/C=N/N5CCN(C)CC5)c(O)c4c3C2=O)NC(=O)/C(C)=C\C=C\[C@H](C)[C@H](O)[C@@H](C)[C@@H](O)[C@@H](C)[C@H](OC(C)=O)[C@@H]1C [RIFAMPIN]	0.25 µg/mL
CO[C@H]1/C=C/O[C@@]2(C)Oc3c(C)c(O)c4c(=O)c(c5oc6cc(N7CCN(CCn8c([N+](=O)[O-])cnc8C)CC7)cc(O)c6nc-5c4c3C2=O)NC(=O)/C(C)=C\C=C\[C@H](C)[C@H](O)[C@@H](C)[C@@H](O)[C@@H](C)[C@H](OC(C)=O)[C@@H]1C	2 µg/mL

--- query ---
MIC in this record for CO[C@H]1/C=C/O[C@@]2(C)Oc3c(C)c(O)c4c(O)c(c(/C=N/N5CCN(CCn6c([N+](=O)[O-])cnc6C)CC5)c(O)c4c3C2=O)NC(=O)/C(C)=C\C=C\[C@H](C)[C@H](O)[C@@H](C)[C@@H](O)[C@@H](C)[C@H](OC(C)=O)[C@@H]1C : 2 µg/mL

---

# assay.explanation: Clearance in C57BL/6 mouse at 5 mg/kg, iv
# Type: ADME, organism-based
# stated.conditions: in vivo
quantity.name: clearance (mL/min/kg)
Report as a plain number; the unit mL/min/kg is understood.

The compound listed as CO[C@H]1/C=C/O[C@@]2(C)Oc3c(C)c(O)c4c(c3C2=O)C2=NC3(CCN(CCn5c([N+](=O)[O-])cnc5C)CC3)NC2=C(NC(=O)/C(C)=C\C=C\[C@H](C)[C@H](O)[C@@H](C)[C@@H](O)[C@@H](C)[C@H](OC(C)=O)[C@@H]1C)C4=O [RIFASUTENIZOL] shows clearance equal to 23

---

# assay.explanation: Clearance in Beagle dog at 5 mg/kg, iv
# Assay type: ADME, organism-based, Canis lupus familiaris
# stated.conditions: in vivo
quantity.name: clearance (mL/min/kg)
Unit mL/min/kg implied. Number only.

get_value(item= CO[C@H]1/C=C/O[C@@]2(C)Oc3c(C)c(O)c4c(c3C2=O)C2=NC3(CCN(CCn5c([N+](=O)[O-])cnc5C)CC3)NC2=C(NC(=O)/C(C)=C\C=C\[C@H](C)[C@H](O)[C@@H](C)[C@@H](O)[C@@H](C)[C@H](OC(C)=O)[C@@H]1C)C4=O , readout=clearance) returns 20

---

# assay.explanation: Drug distribution in Sprague-Dawley rat large intestine tissue measured at 2 hrs
# Type: ADME, tissue-based
# stated.conditions: read-out: Ct
quantity.name: concentration at 2 h

Consider CO[C@H]1/C=C/O[C@@]2(C)Oc3c(C)c(O)c4c(c3C2=O)C2=NC3(CCN(CCn5c([N+](=O)[O-])cnc5C)CC3)NC2=C(NC(=O)/C(C)=C\C=C\[C@H](C)[C@H](O)[C@@H](C)[C@@H](O)[C@@H](C)[C@H](OC(C)=O)[C@@H]1C)C4=O . Its measured concentration at 2 h is 8410 ng/g

---

# assay.explanation: Drug distribution in Sprague-Dawley rat stomach content measured at 12 hrs
# Assay type: ADME, tissue-based
# stated.conditions: read-out: Ct
quantity.name: concentration at 12 h (ng/g)
Only the number, expressed in ng/g, is required.

Kindly note the recorded concentration at 12 h for CO[C@H]1/C=C/O[C@@]2(C)Oc3c(C)c(O)c4c(c3C2=O)C2=NC3(CCN(CCn5c([N+](=O)[O-])cnc5C)CC3)NC2=C(NC(=O)/C(C)=C\C=C\[C@H](C)[C@H](O)[C@@H](C)[C@@H](O)[C@@H](C)[C@H](OC(C)=O)[C@@H]1C)C4=O , which is 138

---

# assay.explanation: Drug distribution in Sprague-Dawley rat large intestine tissue measured at 6 hrs
# Type: ADME, tissue-based
# stated.conditions: read-out: Ct
quantity.name: concentration at 6 h
Answer with the value and then the unit.

Lab book: concentration at 6 h of CO[C@H]1/C=C/O[C@@]2(C)Oc3c(C)c(O)c4c(c3C2=O)C2=NC3(CCN(CCn5c([N+](=O)[O-])cnc5C)CC3)NC2=C(NC(=O)/C(C)=C\C=C\[C@H](C)[C@H](O)[C@@H](C)[C@@H](O)[C@@H](C)[C@H](OC(C)=O)[C@@H]1C)C4=O noted as 3660 ng/g
